# TEST: chemical genetic growth profiling, strain panel (AID 1159580);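 note: tested at 20 µM; growth read once vehicle control cultures reached saturation at 30 °C; lower values mean less growth of the strain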
# CONDITIONS USED: S. cerevisiae deletion strains, growth OD, locus YDR392W, strain spt3
About 2,000 (36%) of roughly 5,500 compounds were called active. Another 18% or so got no clear call; they are omitted. Cut-off read from the data, not from the text of the source: active = normalized growth mostly below about 0.91 (no sharp cut-off); inconclusive = no clear call, values can overlap the other calls; inactive = mostly above about 0.92. This is one part of the list.
Classes used: active, inactive

MOLECULE: COc1cccc2c1C(=O)c1c(O)c3c(c(O)c1C2=O)C[C@@](O)(C(=O)CO)C[C@@H]3O[C@H]1C[C@H](N)[C@@H](O)[C@H](C)O1
ANSWER LABEL: inactive

MOLECULE: COc1cccc2c1C(=O)c1c(O)c3c(c(O)c1C2=O)C[C@@](O)(C(=O)CO)C[C@@H]3OC1C[C@H](N)[C@H](O)[C@H](C)O1 (some centres not stated)
ANSWER LABEL: inactive

MOLECULE: COc1cccc2c1C(=O)c1c(O)c3c(c(O)c1C2=O)C[C@@](O)(C(C)=O)C[C@@H]3O[C@H]1C[C@H](N)[C@H](O)[C@H](C)O1
ANSWER LABEL: inactive

MOLECULE: O=C1c2c(O)cccc2Cc2cccc(O)c21
ANSWER LABEL: inactive

MOLECULE: CC(C)(Oc1ccc(CCNC(=O)c2ccc(Cl)cc2)cc1)C(=O)O
ANSWER LABEL: inactive

MOLECULE: CC1OC(=O)C(C(C)C)NC(=O)C(C(C)C)OC(=O)C(C(C)C)NC(=O)C(C)OC(=O)C(C(C)C)NC(=O)C(C(C)C)OC(=O)C(C(C)C)NC(=O)C(C)OC(=O)C(C(C)C)NC(=O)C(C(C)C)OC(=O)C(C(C)C)NC1=O (configuration not stated)
ANSWER LABEL: active

MOLECULE: Cc1cc(-n2c(=O)[nH]c(=O)n(C)c2=O)ccc1Oc1ccc(SC(F)(F)F)cc1
ANSWER LABEL: active
